Hey, just so you know, these numbers are from PubChem BioAssay (NCI).

- Tested on: SF-539 CNS
- PROTOCOL_DESCRIPTION: NCI tumour cell line growth inhibition, 48 h; in the data active = GI50 below about 0.43 µM; inactive = the rest
One label from this list, please: y for active, n for inactive

*Q* Identify the outcome logged in this assay for the molecule shown: O=S(=O)(CCOCc1ccc(-c2ccc3ncnc(Nc4ccc(OCc5cccc(F)c5)c(Cl)c4)c3c2)o1)c1ccccc1
*A* n

*Q* Recorded test outcome, item CCSc1nc(N)c2cn[nH]c2n1
*A* n

*Q* Which result was noted for this molecule in the test: COc1ccc(CC(C)C(C)Cc2ccc(OC)c(OC)c2)cc1OC (stereo not given)
*A* n

*Q* # lookup: test call for CCC(=C(c1ccc(OCCCN(C)C)cc1)c1ccc(OCCCN(C)C)cc1)c1ccc(Cl)cc1
*A* y

*Q* Recorded test call requested for Cc1cc(Nc2nc(SCc3ccc(C(=O)Nc4ccc(F)cc4N)cc3)nn3cccc23)n[nH]1
*A* y

*Q* Given O=C(O)CCC(NC(=S)S)C(=O)O.[Na+].[Zn+2] (stereo not given) , state the outcome it received in this test.
*A* n

*Q* Lab log entry: O=C1C(Cl)=C(Nc2ccccc2)C(=O)c2ccccc21 — outcome as called in the assay?
*A* n

*Q* Test call for this molecule, please: CCCCCCCCCCCC[n+]1ccccc1 (tested in a mixture with another compound)
*A* n

*Q* GET /call?item= CC1CCCc2c1nn(C(=O)/C=C(\N)c1ccccc1)c2N (stereo not given) returns the recorded outcome of this test.
*A* n

*Q* Per the assay record, what outcome was assigned to COc1ccccc1/C=C/C(=O)/C=C/c1ccccc1O ?
*A* n

*Q* Tell me the assay call for c1ccc2nc3c(cc4ccccn43)nc2c1 please.
*A* n

*Q* Any idea what this test logged for COc1ccc2cc(-c3ccc(-c4ccc(C(=N)N)s4)s3)ccc2c1 ?
*A* n

*Q* How did this test come out for COc1cc([N+](=O)[O-])c(OC)cc1-c1nc2sc(Cl)cn2c1/C=N/Nc1ccccn1 ?
*A* n

*Q* # fetch the recorded call for O=C1c2cccnc2-c2nc(-c3ccncc3)cc3c2c1nc1ccccc13 here
*A* n

*Q* What call does the record list for COc1ccc(-c2nnc(N3CCN(C(=O)CN4CCN(c5ccc(OC)cc5)CC4)CC3)nc2-c2ccc(OC)cc2)cc1 ?
*A* n

====

- System: CAKI-1 renal
- PROTOCOL_DESCRIPTION: NCI tumour cell line growth inhibition, 48 h; in the data active = GI50 below about 0.43 µM; inactive = the rest
Hello, when you answer, please use one of the following outcomes: 1 (active), 0 (inactive)

*Q* Field: outcome | Entry: Cn1c([N+](=O)[O-])cnc1/C=C1\Oc2cc(Cl)ccc2C1=O
*A* 1

*Q* Which result was noted for this molecule in the test: O=C(c1ccc2ccccc2c1)c1c(C(F)(F)F)n([O-])c2ccc(Cl)cc2[n+]1=O
*A* 0

*Q* # fetch the recorded call for CCCCCCCCCCN=C(c1ccc(N(C)C)cc1)c1ccc(N(C)C)cc1 here
*A* 0

*Q* Field: outcome | Entry: O=c1c2c3c(sc2n2c(-c4cc(-c5ccccc5)nn4-c4ccccc4)nnc2n1Cc1ccccc1)CCCC3
*A* 0

*Q* Please state the recorded outcome for this molecule: O=C(O)CCC(NC(=S)S)C(=O)O.[Na+].[Zn+2] (stereo not given)
*A* 0

====

- Test system: U251 CNS
- PROTOCOL_DESCRIPTION: NCI tumour cell line growth inhibition, 48 h
Answer each item with its documented TGI.

*Q* Would you kindly share the measured TGI for OC(CN1CC1)C(O)CN1CC1 (configuration not stated) ?
*A* > 50 µg/mL

*Q* State the recorded TGI for this entry: O=S(=O)(O)c1cc2ccc1/C=C\c1ccc(cc1S(=O)(=O)O)N=Nc1ccc(c(S(=O)(=O)O)c1)/C=C\c1ccc(cc1S(=O)(=O)O)N=N2
*A* > 100 µM

*Q* Item C=CCNC(=S)/N=C/c1c(O)c2ccccc2oc1=O has what recorded TGI?
*A* > 100 µM

*Q* For the molecule shown here, Cc1csc(-c2cn(C)c3c2C(=O)C(N)=CC3=O)n1 , give the reported TGI.
*A* > 100 µM

*Q* For Cc1c2c(n(CCc3ccc(Cl)cc3)c1C)NN=C(C#N)S2(=O)=O , what is its reported TGI?
*A* > 100 µM

*Q* Entry Brc1cccc(Nc2nc(-c3cccs3)nc3ccc(Br)cc23)c1 : reported TGI = ?
*A* > 100 µM

*Q* Request the reported TGI associated with COc1ccc2cc3c4cc5c(cc4cc[n+]3cc2c1OC)OCO5
*A* 15.3 µM

*Q* Using the record for C(=N\NC1=NCCCN1)/c1ccc2ccccc2c1 , report its TGI.
*A* 19.8 µM

*Q* What value of TGI has been recorded for this entry: O=C(CNc1ccccc1Cl)Nn1c(-c2ccccc2)nc2ccccc2c1=O
*A* 33 µM

*Q* Any idea what its TGI is? The molecule is CCOC(=N)n1c(=O)n(C2=NCCN2)c2ccccc21
*A* > 100 µM

*Q* Query: TGI; subject: CC1(C)N=C(C(N)=O)c2ncn(CCCO)c2N1
*A* > 100 µM

*Q* May I ask what TGI has been recorded for Cn1c2ccccc2c2c(=O)c3ccccc3[nH]c21 ?
*A* > 100 µM

*Q* Would you kindly share the measured TGI for c1ccc2c(c1)NC(C1OC3CCCN3C1C1Nc3ccccc3S1)S2 (configuration not stated) ?
*A* > 100 µM

*Q* Tell me the measured TGI of C=C1CC2(OC1=O)C(=O)N(CCCN1C(=O)C3(CC(=C)C(=O)O3)c3ccccc31)c1ccccc12 (configuration not stated) , please.
*A* 18.7 µM

*Q* Consider the molecule CCC(=C(c1ccc(OCCCN(C)C)cc1)c1ccc(OCCCN(C)C)cc1)c1ccc(Cl)cc1 and give its measured TGI.
*A* 1.1 µM

*Q* Field request: TGI | item: C=CCC1[C@@H](C(C)(C)C(C(C)=O)C(=O)C(=O)OC)OC(C(C)(C)C)N1C(=O)OC (some centres not stated)
*A* > 100 µM

*Q* Any idea what its TGI is? The molecule is O=c1c2ccccc2nc2[nH][nH]c(=S)n12
*A* > 100 µM

*Q* // TGI lookup, key: c1ccc2nc3c(cc4ccccn43)nc2c1
*A* > 100 µM

*Q* # get_value(readout='TGI', item= COc1ccc(Nc2nc3ccccc3nc2-c2cccs2)cc1 )
*A* > 100 µM

*Q* Consider the molecule shown here: C=CCSc1nc2ccccc2c(=O)n1Cc1ccco1 What is its recorded TGI?
*A* > 100 µM

*Q* Recorded TGI for CCCCCCCCCCCCCCCCCCNC(=O)[C@H]1CSC(c2cccs2)N1 (some centres not stated) , please?
*A* 1.74 µM

*Q* Requested read-out: TGI. Entry: O=C(NC12CC3CC(CC(C3)C1)C2)C(=O)c1c[nH]c2ccc(Cl)cc12
*A* > 100 µM

*Q* Which TGI value is on record for N#CC(C#N)=CNC(=S)c1ccncc1 ?
*A* > 100 µM

*Q* // TGI lookup, key: CC(=O)O[C@]12CCCCCC1C1(O)C(O)CCC[C@H]12 (some centres not stated)
*A* > 100 µM

*Q* What does the record list as TGI for OC(c1ccc(Br)cc1)(c1cccs1)C1CC1 (configuration not stated) ?
*A* 35.4 µM

*Q* Data request, read-out TGI, for N#CCCN(CCC#N)c1ccc(/C=C2\N=C(c3ccccc3)N(c3ccc(Cl)cc3)C2=O)cc1
*A* > 100 µM

*Q* // returns reported TGI for input CO[C@]12CC(=O)C3(C(C[C@H]4CC5CC=C6C[C@@H](OC(C)=O)CC[C@]6(OC(C)=O)C5C[C@@]43C)C1)C1C[C@H]3[C@@H]4CC=C5C[C@@H](OC(C)=O)CC[C@]5(OC(C)=O)[C@H]4CC[C@]3(C)C12 (some centres not stated)
*A* > 100 µM

*Q* Request the reported TGI associated with CC1CCCc2c1nn(C(=O)/C=C(\N)c1ccccc1)c2N (configuration not stated)
*A* > 100 µM

*Q* Param item = CNC(=O)c1cc2c(Oc3ccc(NC(=O)C4(C(=O)Nc5ccc(F)cc5)CC4)cc3)ccnc2cc1OC ; retrieve measured TGI.
*A* > 100 µM

*Q* GET /values?readout=TGI&item= O=c1ncccn1C1C=C(CO)C(O)C1O (configuration not stated)
*A* > 50 µM

*Q* Quick one: TGI of C/C(CC1C2CCCC1C2)=N\NC(N)=O (configuration not stated) ?
*A* > 100 µM

*Q* Quick one: TGI for NC(N)=NS(=O)(=O)c1ccc(NC(=O)c2cccc3c(Nc4ccc(S(N)(=O)=O)cc4)c4ccccc4nc23)cc1 ?
*A* > 100 µM

*Q* Please look up its TGI: CNC(SC)=C1C(=O)OC(C)(C)OC1=O
*A* 37.7 µM

*Q* Given CN(C)c1nc(=NCc2ccccc2)ss1 , state its recorded TGI.
*A* > 10 µM

*Q* I am curious: what TGI value has been reported for COCOc1ccc(Cn2c(=O)n(C)c(=O)c3c2ncn3C)cc1[N+](=O)[O-] ?
*A* > 100 µM

*Q* Which value of TGI has been reported for CCCCCCCCCCN=C(c1ccc(N(C)C)cc1)c1ccc(N(C)C)cc1 in the records?
*A* 33.2 µM

*Q* Entry under review: O=C/C(=C(/Cl)c1ccc(O)cc1)c1ccccc1 . Reported TGI?
*A* > 56.5 µM

*Q* Consider the molecule CC(C)COP(=O)(OCC(C)C)C(NS(=O)(=O)c1ccccc1)(C(F)(F)F)C(F)(F)F and give its measured TGI.
*A* 17.3 µM

*Q* # input molecule: COc1cc(C2CC(C)(Nc3ccccc3)Oc3cc4c(cc32)OCO4)cc(OC)c1OC (configuration not stated) ; wanted: its TGI
*A* 17.2 µM

*Q* GET /values?readout=TGI&item= CCN(CC)CCNC(=O)c1cn2ncnc(Oc3ccc(NC(=O)Nc4ccc(Cl)c(C(F)(F)F)c4)c(F)c3)c2c1C
*A* 3.07 µM

*Q* Give its TGI value. Item: Cc1cc(N(CCC#N)CCC#N)ccc1/C=C1N=C(/C=C/c2ccccc2)OC(=O)N\1
*A* > 100 µM

*Q* Bench note: what TGI did CCOC(=O)c1ccc(N[C@@H]2c3cc4c(cc3C(C3=CC(=O)C(=O)C(OC)=C3)[C@H]3C(=O)OCC32)OCO4)cc1 (some centres not stated) show?
*A* 4.77 µM
